Origin of values: patent US20170129961A1

- TARGET OF ASSAY: T1, full-length mouse CD70 with C-terminal V5 tag (mouse, UniProt O55237 1-195)
- T1 construct: On transfected CHO cells; also called murine CD70
- T1 sequence: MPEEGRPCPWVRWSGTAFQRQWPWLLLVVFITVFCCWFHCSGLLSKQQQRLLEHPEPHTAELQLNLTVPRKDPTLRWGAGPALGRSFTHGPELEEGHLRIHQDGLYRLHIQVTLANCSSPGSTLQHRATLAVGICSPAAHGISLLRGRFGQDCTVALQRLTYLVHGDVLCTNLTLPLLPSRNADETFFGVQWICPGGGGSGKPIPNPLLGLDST
- METHOD DESCRIPTION: FACS on CHO cells, periplasmic scFv

| BINDER | binding result |
| --- | --- |
| CD70-14 (scFv, As m32) scFv: EVQLLESGGGLVQPGGSLKLSCAASGFTFSIYAMSWVRQAPGKGLEWVSAISGSGGSTFYADSVKGRFTISRDNSKNTLYLQMNSLRAEDTAVYYCAKHDYSNYPYFDYWGQGTLVTVSSGGGGSGGGGSGGGGSEIVLTQSPGTLSLSPGERATLSCRASQSVRSSYLAWYQQKPGQAPRLLIYGASSRATGIPDRFSGSGSGTDFTLTISRLEPEDFAVYYCQQYGDLPFTFGPGTKLEIK | no binding |
| CD70-40 (scFv, As m32) scFv: EVQLLESGGGMVQPGGSLRLSCAASGFTFSSYAMSWVRQAPGKGLEWVSAISGSGGRTFYADSVEGRFTISRDNSKNTLYLQMNSLRAEDTAVYYCAKHDYSNYPYFDYWGQGTLVTVSSGGGGSGGGGSGGGGSEIVLTQSPGTLSLSPGERATLSCRASQSIRSSYLAWYQQKPGQAPRLLIYGASSRATGIPDRFSGSGSGTDFTLTISRLEPEDFAVYYCQQYGDLPFTFGPGTKVDIK | no binding |
| CD70-37 (scFv, As m32) scFv: EVQLLESGGGLVQPGGSLRLSCAASGFTFSSYAMSWVRQAPGKGLEWVSAIGDGGGYTYYADSVKGRFTISRDNSKNTLSLLMNSLRAEDTAVYYCARHDYSNYPYFDYWGQGTLVTVSSGGGGSGGGGSGGGGSEIVLTQSPGTLSLSPGERATLSCRASQGVRSSYFAWYQQKPGQAPRLLIYGASTRATGIPARFSGSGSGTDFTLTISRLEPEDFAVYYCQQYGSSPPTFGQGTKVEIK | no binding |
